- TESTED ON: egg albumin (Gallus gallus, UniProt P01012)
- Sequence (P01012 2-386): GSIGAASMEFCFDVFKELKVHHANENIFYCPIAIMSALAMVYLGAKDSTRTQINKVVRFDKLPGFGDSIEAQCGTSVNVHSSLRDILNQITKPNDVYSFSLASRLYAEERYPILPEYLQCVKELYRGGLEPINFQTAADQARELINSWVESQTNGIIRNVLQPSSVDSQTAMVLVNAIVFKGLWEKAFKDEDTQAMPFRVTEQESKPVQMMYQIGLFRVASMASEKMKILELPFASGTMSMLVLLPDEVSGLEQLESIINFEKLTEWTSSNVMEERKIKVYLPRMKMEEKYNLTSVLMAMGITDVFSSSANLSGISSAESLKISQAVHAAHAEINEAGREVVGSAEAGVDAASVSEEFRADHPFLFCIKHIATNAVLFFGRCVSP
- METHOD NOTES: Inhibition of protein denaturation method
- Assay type: biochemical
- MEASUREMENT CONDITIONS: read-out: Inhibition of protein denaturation (%)
READOUT NAME: inhibition at 200 µg/mL (%)

[P] CN(C)c1ccc(C2N=C(N)Nc3nc(C(=O)Nc4ccc(S(N)(=O)=O)cc4)nn32)cc1 (stereo not shown)
[Q] NC1=NC(c2ccco2)n2nc(C(=O)Nc3ccc(S(N)(=O)=O)cc3)nc2N1 (stereo not shown)
Hey, between P and Q which has a smaller measured inhibition at 200 µg/mL? Kindly state the label of the option you pick.
P

----------
- TESTED ON: COX-1 (Ovis aries, UniProt P05979)
- Sequence (P05979 25-600): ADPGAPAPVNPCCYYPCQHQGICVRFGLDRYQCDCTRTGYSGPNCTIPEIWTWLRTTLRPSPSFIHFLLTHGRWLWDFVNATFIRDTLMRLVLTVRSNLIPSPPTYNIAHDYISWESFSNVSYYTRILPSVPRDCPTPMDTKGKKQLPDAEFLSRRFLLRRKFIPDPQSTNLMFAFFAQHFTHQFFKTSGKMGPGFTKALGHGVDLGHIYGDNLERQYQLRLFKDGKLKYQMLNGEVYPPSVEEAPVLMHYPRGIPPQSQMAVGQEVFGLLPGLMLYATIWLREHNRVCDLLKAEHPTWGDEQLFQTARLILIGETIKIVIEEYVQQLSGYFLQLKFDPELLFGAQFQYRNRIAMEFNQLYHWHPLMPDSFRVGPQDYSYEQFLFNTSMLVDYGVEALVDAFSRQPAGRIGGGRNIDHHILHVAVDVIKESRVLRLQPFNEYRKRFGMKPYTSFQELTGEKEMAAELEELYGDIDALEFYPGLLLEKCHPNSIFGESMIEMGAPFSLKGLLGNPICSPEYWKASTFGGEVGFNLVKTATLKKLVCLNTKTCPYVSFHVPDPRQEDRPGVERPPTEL
- METHOD NOTES: In vitro COX inhibitory assay
- Format: biochemical
- MEASUREMENT CONDITIONS: read-out: Inhibition of COX-1 (%)
READOUT NAME: inhibition at 100 µg/mL (%)

These recorded examples may help you get a feel for the data.
# COMPOUND, UNITS TEXT, inhibition at 100 µg/mL
measured = [
    ("NC1=NC(c2ccccc2O)n2nc(C(=O)Nc3ccc(S(N)(=O)=O)cc3)nc2N1 (centres unmarked)", "%", 63.4),
    ("CN(C)c1ccc(C2N=C(N)Nc3nc(C(=O)Nc4ccc(S(N)(=O)=O)cc4)nn32)cc1 (centres unmarked)", "%", 53.2),
]

[P] NC1=NC(c2ccco2)n2nc(C(=O)Nc3ccc(S(N)(=O)=O)cc3)nc2N1 (centres unmarked)
[Q] NC1=NC(c2ccccc2Cl)n2nc(C(=O)Nc3ccc(S(N)(=O)=O)cc3)nc2N1 (centres unmarked)
Lowest inhibition at 100 µg/mL? choose P or Q # respond with the chosen item's label
Q
(Q: 55.4%, P: 80.6%)

----------
- TESTED ON: egg albumin (Gallus gallus, UniProt P01012)
- METHOD NOTES: Inhibition of protein denaturation method
- Assay type: biochemical
- MEASUREMENT CONDITIONS: read-out: Inhibition of protein denaturation (%)
READOUT NAME: inhibition at 200 µg/mL (%)

# COMPOUND, READOUT NAME, UNITS TEXT, TEST VALUE
rows = [
    ("COc1ccc(C2N=C(N)Nc3nc(C(=O)Nc4ccc(S(N)(=O)=O)cc4)nn32)cc1 (stereo not drawn)", "inhibition at 200 µg/mL", "%", 61.6),
    ("NC1=NC(c2cccc(O)c2)n2nc(C(=O)Nc3ccc(S(N)(=O)=O)cc3)nc2N1 (stereo not drawn)", "inhibition at 200 µg/mL", "%", 65.7),
    ("NC1=NC(c2ccccc2O)n2nc(C(=O)Nc3ccc(S(N)(=O)=O)cc3)nc2N1 (stereo not drawn)", "inhibition at 200 µg/mL", "%", 93.9),
    ("NC1=NC(c2cccc3ccccc23)n2nc(C(=O)Nc3ccc(S(N)(=O)=O)cc3)nc2N1 (stereo not drawn)", "inhibition at 200 µg/mL", "%", 65.5),
    ("NC1=NC(C2N=C(N)Nc3nc(C(=O)Nc4ccc(S(N)(=O)=O)cc4)nn32)n2nc(C(=O)Nc3ccc(S(N)(=O)=O)cc3)nc2N1 (stereo not drawn)", "inhibition at 200 µg/mL", "%", 65.3),
    ("NC1=NC(/C=C/c2ccccc2)n2nc(C(=O)Nc3ccc(S(N)(=O)=O)cc3)nc2N1 (stereo not drawn)", "inhibition at 200 µg/mL", "%", 67.4),
]

----------
- TESTED ON: egg albumin (Gallus gallus, UniProt P01012)
- METHOD NOTES: Inhibition of protein denaturation method
- Type: biochemical
- MEASUREMENT CONDITIONS: read-out: Inhibition of protein denaturation (%)
READOUT NAME: inhibition at 100 µg/mL (%)

Guide cases for inhibition at 100 µg/mL, answers given:
# MOLECULE, READOUT NAME, TEST VALUE
measured = [
    ("NC1=NC(c2cccc(O)c2)n2nc(C(=O)Nc3ccc(S(N)(=O)=O)cc3)nc2N1 (stereo not shown) [Compound 13]", "inhibition at 100 µg/mL", 59.8),
    ("NC1=NC(c2cccc3ccccc23)n2nc(C(=O)Nc3ccc(S(N)(=O)=O)cc3)nc2N1 (stereo not shown) [Compound 10]", "inhibition at 100 µg/mL", 59.7),
    ("CN(C)c1ccc(C2N=C(N)Nc3nc(C(=O)Nc4ccc(S(N)(=O)=O)cc4)nn32)cc1 (stereo not shown) [Compound 12]", "inhibition at 100 µg/mL", 60.5),
]

[A] COc1ccc(C2N=C(N)Nc3nc(C(=O)Nc4ccc(S(N)(=O)=O)cc4)nn32)cc1 (stereo not shown) [Compound 9]
[B] NC1=NC(c2ccco2)n2nc(C(=O)Nc3ccc(S(N)(=O)=O)cc3)nc2N1 (stereo not shown) [Compound 4]
Given the listed items, does A or B have the lesser reported inhibition at 100 µg/mL? Respond with the label that goes with your answer.
A

----------
- TESTED ON: COX-1 (Ovis aries)
READOUT NAME: IC50 (µM)

# COMPOUND, READOUT NAME, TEST VALUE
rows = [
    ("NC1=NC(c2ccccc2O)n2nc(C(=O)Nc3ccc(S(N)(=O)=O)cc3)nc2N1 (centres unmarked)", "IC50", 141),
    ("CN(C)c1ccc(C2N=C(N)Nc3nc(C(=O)Nc4ccc(S(N)(=O)=O)cc4)nn32)cc1 (centres unmarked)", "IC50", 192),
    ("NC1=NC(c2ccccc2Cl)n2nc(C(=O)Nc3ccc(S(N)(=O)=O)cc3)nc2N1 (centres unmarked)", "IC50", 186),
]

[1] Cc1ccccc1C1N=C(N)Nc2nc(C(=O)Nc3ccc(S(N)(=O)=O)cc3)nn21 (centres unmarked)
[2] NC1=NC(c2ccco2)n2nc(C(=O)Nc3ccc(S(N)(=O)=O)cc3)nc2N1 (centres unmarked)
Pick one: 1 or 2 . Which has the bigger IC50 number? Your answer should be the label attached to the chosen record.
1

----------
- TESTED ON: COX-2 (Homo sapiens)
- METHOD NOTES: In vitro COX inhibitory assay
- Format: biochemical
- MEASUREMENT CONDITIONS: COX-1/COX-2 selectivity index
READOUT NAME: Selectivity index

[P] NC1=NC(c2ccco2)n2nc(C(=O)Nc3ccc(S(N)(=O)=O)cc3)nc2N1 (centres unmarked)
[Q] NC1=NC(c2ccccc2Cl)n2nc(C(=O)Nc3ccc(S(N)(=O)=O)cc3)nc2N1 (centres unmarked)
Endpoint returns whichever of P and Q has the numerically higher Selectivity index. State the label of the item chosen.
Q
(Q: 2.07, P: 1.44)

----------
- TESTED ON: COX-2 (Homo sapiens)
- METHOD NOTES: In vitro COX inhibitory assay
- Format: biochemical
- MEASUREMENT CONDITIONS: read-out: Inhibition of COX-2 (%)
READOUT NAME: inhibition at 50 µg/mL (%)

Here's what some known entries look like.
# COMPOUND, TESTED ON, inhibition at 50 µg/mL / %
rows = [
    ("CN(C)c1ccc(C2N=C(N)Nc3nc(C(=O)Nc4ccc(S(N)(=O)=O)cc4)nn32)cc1 (centres unmarked) [Compound 12]", "COX-2 (Homo sapiens)", 59.1),
    ("Cc1ccccc1C1N=C(N)Nc2nc(C(=O)Nc3ccc(S(N)(=O)=O)cc3)nn21 (centres unmarked) [Compound 5]", "COX-2 (Homo sapiens)", 60),
    ("NC1=NC(c2ccccc2O)n2nc(C(=O)Nc3ccc(S(N)(=O)=O)cc3)nc2N1 (centres unmarked) [Compound 11]", "COX-2 (Homo sapiens)", 60.3),
]

[1] NC1=NC(c2ccccc2Cl)n2nc(C(=O)Nc3ccc(S(N)(=O)=O)cc3)nc2N1 (centres unmarked) [Compound 8]
[2] NC1=NC(c2ccco2)n2nc(C(=O)Nc3ccc(S(N)(=O)=O)cc3)nc2N1 (centres unmarked) [Compound 4]
Given the two records 1 and 2 , choose the one whose inhibition at 50 µg/mL value is lower. Refer to your chosen entry by its label in the reply.
1
(1: 62.6%, 2: 90%)

----------
- TESTED ON: COX-2 (Homo sapiens, UniProt P35354)
- Sequence (P35354 18-604): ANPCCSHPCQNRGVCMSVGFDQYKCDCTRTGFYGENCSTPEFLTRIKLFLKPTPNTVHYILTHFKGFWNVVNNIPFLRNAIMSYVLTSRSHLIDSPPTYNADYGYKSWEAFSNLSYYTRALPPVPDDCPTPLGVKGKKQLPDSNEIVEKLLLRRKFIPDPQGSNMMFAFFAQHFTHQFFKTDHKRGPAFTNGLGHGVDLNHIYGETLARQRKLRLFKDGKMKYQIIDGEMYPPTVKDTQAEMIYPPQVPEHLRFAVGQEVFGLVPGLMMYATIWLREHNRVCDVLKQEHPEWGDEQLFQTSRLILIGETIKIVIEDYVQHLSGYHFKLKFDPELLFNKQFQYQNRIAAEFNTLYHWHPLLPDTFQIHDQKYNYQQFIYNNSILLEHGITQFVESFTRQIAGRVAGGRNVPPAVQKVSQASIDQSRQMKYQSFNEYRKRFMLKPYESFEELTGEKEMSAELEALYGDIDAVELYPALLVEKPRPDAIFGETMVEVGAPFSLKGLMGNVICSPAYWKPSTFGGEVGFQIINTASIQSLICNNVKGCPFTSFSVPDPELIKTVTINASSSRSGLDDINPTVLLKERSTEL
pIC50: −log10 of the molar value.
READOUT NAME: pIC50

# COMPOUND, TESTED ON, pIC50
records = [
    ("Cc1ccccc1C1N=C(N)Nc2nc(C(=O)Nc3ccc(S(N)(=O)=O)cc3)nn21 (centres unmarked)", "COX-2 (Homo sapiens, UniProt P35354)", 4.01),
    ("CN(C)c1ccc(C2N=C(N)Nc3nc(C(=O)Nc4ccc(S(N)(=O)=O)cc4)nn32)cc1 (centres unmarked)", "COX-2 (Homo sapiens, UniProt P35354)", 4.03),
    ("NC1=NC(c2ccccc2O)n2nc(C(=O)Nc3ccc(S(N)(=O)=O)cc3)nc2N1 (centres unmarked)", "COX-2 (Homo sapiens, UniProt P35354)", 4.01),
    ("NC1=NC(c2ccco2)n2nc(C(=O)Nc3ccc(S(N)(=O)=O)cc3)nc2N1 (centres unmarked)", "COX-2 (Homo sapiens, UniProt P35354)", 4.16),
    ("NC1=NC(c2ccccc2Cl)n2nc(C(=O)Nc3ccc(S(N)(=O)=O)cc3)nc2N1 (centres unmarked)", "COX-2 (Homo sapiens, UniProt P35354)", 4.05),
]
